Origin of the recorded values: ChEMBL document CHEMBL1811853

Measured inhibition values are reported for all entries that follow.
Target: Mitogen-activated protein kinase 1 (Homo sapiens) (UniProt P28482)
Sequence (P28482 whole entry): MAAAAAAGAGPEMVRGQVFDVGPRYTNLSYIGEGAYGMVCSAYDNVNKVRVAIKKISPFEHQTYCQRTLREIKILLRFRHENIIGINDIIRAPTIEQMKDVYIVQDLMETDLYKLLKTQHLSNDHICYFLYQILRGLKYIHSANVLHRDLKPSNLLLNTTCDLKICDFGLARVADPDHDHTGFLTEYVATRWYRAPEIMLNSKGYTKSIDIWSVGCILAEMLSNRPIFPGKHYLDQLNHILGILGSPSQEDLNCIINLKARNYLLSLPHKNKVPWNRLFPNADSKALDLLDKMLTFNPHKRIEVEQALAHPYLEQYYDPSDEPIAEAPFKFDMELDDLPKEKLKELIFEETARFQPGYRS
Experiment: Inhibition of ERK2 at 30 uM by microfluidic mobility shift assay
Reply with just the number (in %).

smilesrepr=Cc1cc2c(c(N)nn2C)c(=O)[nH]1 endpointunit=% numericvalue=8
smilesrepr=COc1ccc(-c2cc3c(c(N)nn3C)c(=O)[nH]2)cc1 endpointunit=% numericvalue=16
smilesrepr=Nc1n[nH]c2cc(-c3ccc(N4CCOCC4)cc3)[nH]c(=O)c12 endpointunit=% numericvalue=-3
smilesrepr=Cc1[nH]c(=O)c2c(N)n(-c3ccccc3)nc2c1-c1ccccc1 endpointunit=% numericvalue=8
smilesrepr=COc1ccc(S(=O)(=O)Nc2nn(C)c3cc(C)[nH]c(=O)c23)c(OC)c1 endpointunit=% numericvalue=1
smilesrepr=Nc1n[nH]c2c3c([nH]c(=O)c12)CCCC3 endpointunit=% numericvalue=6
smilesrepr=Cc1nc(N)c2c(=O)[nH]c(C)cc2n1 endpointunit=% numericvalue=3
smilesrepr=COCCNc1nc(-c2ccccc2)cc2c1c(N)nn2C endpointunit=% numericvalue=0

Note: attention shifts to another entry.
Asked: Find inhibition for COc1ccccc1-c1cc2nn(-c3ccccc3)c(N)c2c(=O)[nH]1 on Mitogen-activated protein kinase 1 (Homo sapiens) (UniProt P28482) and write it down.
Given back: 13

====

Measured inhibition values are reported for all entries that follow.
Target: Mitogen-activated protein kinase 3 (Homo sapiens)
Test: Inhibition of ERK1 at 30 uM by microfluidic mobility shift assay
Reply with just the number (in %).

Answered examples (2):
smilesrepr=Nc1n[nH]c2cc(-c3cccnc3)[nH]c(=O)c12 experimentalsystem="Mitogen-activated protein kinase 3 (Homo sapiens)" numericvalue=19
smilesrepr=CN1CCN(c2ccc(-c3cc4c(c(N)nn4C)c(=O)[nH]3)cc2)CC1 experimentalsystem="Mitogen-activated protein kinase 3 (Homo sapiens)" numericvalue=13

Asked: Specify reported inhibition for the molecule shown: Cc1cc2c(c(N)nn2C)c(N2CC[C@H](O)C2)n1
Given back: 2

Asked: Specify reported inhibition for the molecule shown: Cc1[nH]c(=O)c2c(N)n(-c3ccccc3)nc2c1-c1ccccc1
Given back: 14

====

Biological target: MAP kinase-activated protein kinase 5 (Homo sapiens) (UniProt Q8IW41)
Sequence (Q8IW41 whole entry): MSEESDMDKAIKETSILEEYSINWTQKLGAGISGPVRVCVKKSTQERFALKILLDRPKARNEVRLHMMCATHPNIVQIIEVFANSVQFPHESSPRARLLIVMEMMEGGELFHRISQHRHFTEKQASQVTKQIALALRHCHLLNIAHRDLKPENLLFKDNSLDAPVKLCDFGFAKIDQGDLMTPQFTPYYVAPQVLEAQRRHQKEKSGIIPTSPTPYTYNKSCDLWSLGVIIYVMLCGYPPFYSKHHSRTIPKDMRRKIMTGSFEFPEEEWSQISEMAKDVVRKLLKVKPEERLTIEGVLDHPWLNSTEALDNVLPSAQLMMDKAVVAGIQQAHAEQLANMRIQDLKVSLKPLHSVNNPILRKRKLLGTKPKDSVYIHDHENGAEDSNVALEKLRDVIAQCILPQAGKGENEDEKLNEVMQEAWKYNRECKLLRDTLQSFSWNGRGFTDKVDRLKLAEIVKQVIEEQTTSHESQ
Test: Inhibition of PRAK1 at 30 uM by microfluidic mobility shift assay
assayMetric: inhibition (%)
Reply with just the number (in %).

Asked: Specify reported inhibition for the compound shown: Cn1nc2c3c(nc(-c4ccccc4)cc31)NCC(=O)N2
Given back: 3

Asked: Specify reported inhibition for the compound shown: Nc1n[nH]c2cc(CC3CCNCC3)[nH]c(=O)c12
Given back: 3

Asked: Specify reported inhibition for the compound shown: Cc1cc2c(cn1)c(N)nn2C
Given back: 9

Asked: Specify reported inhibition for the compound shown: Cn1nc(N)c2c(=O)[nH]c(-c3ccccn3)cc21
Given back: 9

Asked: Specify reported inhibition for the compound shown: CN1CCN(c2ccc(-c3cc4nn(-c5ccccc5)c(N)c4c(=O)[nH]3)cc2)CC1
Given back: 4

Asked: Specify reported inhibition for the compound shown: CN1CCN(c2ccc(-c3cc4[nH]nc(N)c4c(=O)[nH]3)cc2)CC1
Given back: 11

Asked: Specify reported inhibition for the compound shown: COCCNc1nc(C)cc2c1c(N)nn2C
Given back: 5

Asked: Specify reported inhibition for the compound shown: Nc1c2c(=O)[nH]c(-c3ccccn3)cc2nn1-c1ccccc1
Given back: 2
